# System: K-562 leukemia
# procedure.summary: NCI-60 one-dose screen, 48 h (100 = growth as untreated, 0 = no growth, -100 = all killed)
# conditions.used: 10 µM unless noted
Compounds without any hit were thinned out: in the full panel of roughly 83,000, 20% have a hit.

{"molecule": "CC(=O)Nc1cccc(Nc2nc(N[C@H](C)c3ccccc3)c3ccccc3n2)c1", "unit.annotation": "%", "growth": 5.94}
{"molecule": "CCCCCc1ccc(S(=O)(=O)Nc2cccc(-c3csc(NC(=O)CCCCCN4CCN(C)CC4)n3)c2)cc1", "unit.annotation": "%", "growth": -35.7}
{"molecule": "Cc1occc1-c1nc2s/c(=C/c3ccc(-c4cc(C(F)(F)F)ccc4Cl)o3)c(=O)n2n1", "unit.annotation": "%", "growth": 105}
{"molecule": "COc1ccc(NC2=C(Cl)C(=O)c3nc(C)ccc3C2=O)cc1OC", "unit.annotation": "%", "growth": 7.18}
{"molecule": "O=C(CCn1c[n+](CC(=O)c2ccc(-c3ccccc3)cc2)c2ccccc21)Nc1cccc2cccnc12", "unit.annotation": "%", "growth": 22.9}
{"molecule": "O=C(CNc1nc(-c2cccc([N+](=O)[O-])c2)cs1)Nc1cccc(Cl)c1", "unit.annotation": "%", "growth": 97.1}
{"molecule": "C[C@@H]1C[C@H]2C(=O)O[C@@H](C)C(NC(=O)[C@H](Cc3cc(F)cc(F)c3)NC(=O)Nc3ccc(C4CC4)cc3F)C(=O)N3CCC[C@H]3C(=O)N3CCCC[C@H]3C(=O)N[C@@H](CO)C(=O)N2C1 (stereo partly drawn)", "unit.annotation": "%", "growth": 18.6}
{"molecule": "COC(=O)C(Cc1ccccc1)Nc1nc(NC(Cc2ccccc2)C(=O)OC)nc(N2CCOCC2)n1 (stereo not drawn)", "unit.annotation": "%", "growth": 91.6}

Origin of the recorded values: PubChem BioAssay (NCI)
